target.or.test.system: Claudin18.2-His protein (human)
method.notes: indirect ELISA on coated Claudin18.2-His
parameter: EC50 (µg/mL)
Lab book: enter the figure in µg/mL, no units written.

The reported value for 410A9A9 (antibody, V domains shown) VH: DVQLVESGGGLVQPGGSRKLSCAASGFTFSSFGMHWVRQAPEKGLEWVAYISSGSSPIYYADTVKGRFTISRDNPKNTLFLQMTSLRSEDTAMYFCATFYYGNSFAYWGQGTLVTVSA VL: DIVMTQSPSSLTVTAGEKVTMSCKSSQTLLNSGNQKNYLTWYQQKSGQPPKLLIYWASTRESGVPDRFTGSGSGTDFTLTISSVQAEDLAVYYCQNAYSYPVTFGSGTKVELK in terms of EC50 is 0.0208

// EC50 lookup, binder = 420D5H5 (antibody, V domains shown) VH: DVQLVESGGGLVQPGGSRKLSCAASGFTLSGFGMHWIRQTPEKGLEWVAYISSGSRPIYYVDTVEGRFTISRDNPKNTLFLQMTSLRSEDTAMYFCARFYYGNSFDHWGQGTLVTVSS VL: DIVMTQSPSFLTVTAGEKVTMSCKSSQSLLNSGNQKNYLTWYQQKPGQPPKLLIYWASTRESGVPDRFTGSGSGTDFTLTIRGVQAEDLALYYCQNAYSFPLTFGAGTKLELK , result: 0.0239
